Recorded values, source patent US9751825B2.

Tested on: Non-tumor MCF12A (ER+) cells
Assay: Cytotoxicity in non-tumor MCF12A cells
Assay type: cell-based, human
pIC50: −log10 of the molar value.
property label: pIC50

input: Quickly give me recorded pIC50 for COC(=O)/C=C\C=C(\C(=O)OC)c1ccc(Cl)c(Cl)c1 [HDAB001]
output: < 4.00

----------
System: LNCaP-C4-2
Assay: Cytotoxicity of HDAB001 in prostate carcinoma cell lines, LNCaP-C4-2
Format: cell-based
Conditions: LNCaP-C4-2, AR pos, ind, metastatic
property label: pIC50
Notebook: values listed as pIC50 are -log10 of the concentration (mol/L).

input: Identify measured pIC50 obtained with LNCaP-C4-2 for COC(=O)/C=C\C=C(\C(=O)OC)c1ccc(Cl)c(Cl)c1 [HDAB001] .
output: 6.30
